- system_name: T1, hMC1-R (human, UniProt Q01726 1-317)
- T1 construct: whole, on cells; Assayed as membranes of CHO-K1 cells expressing the receptor; also called hMC-R receptor subtype 1; melanocyte-specific receptor (MC1-R)
- assay_details: ratio Ki hMC1-R / Ki hMC4-R, same assay
Bridge positions count the residues as written; N and C are the ends. Square brackets hold non-standard residues; d marks the D form. Ends that are not written are not given here. Cha = N[C@@H](CC1CCCCC1)C(=O)O; Pen = CC(C)(S)[C@H](N)C(=O)O; Nle = CCCC[C@H](N)C(=O)O; GABA = NCCCC(=O)O
quantity_name: Ki hMC1-R/MC4-R
Answers are plain numbers.

Recorded Ki hMC1-R/MC4-R, per entry:
| binder | Ki hMC1-R/MC4-R |
| --- | --- |
| Ac-CEH[dF]RWAC-NH2 (disulfide 1-8; SMILES CC(=O)N[C@H]1CSSC[C@@H](C(N)=O)NC(=O)[C@H](C)NC(=O)[C@H](Cc2c[nH]c3ccccc23)NC(=O)[C@H](CCCNC(=N)N)NC(=O)[C@@H](Cc2ccccc2)NC(=O)[C@H](Cc2c[nH]cn2)NC(=O)[C@H](CCC(=O)O)NC1=O) [Ac-c(Cys-Glu-His-D-Phe-Arg-Trp-Ala-Cys)-NH2] | 2.33 |
| Ac-[Nle]C[dL]H[dF]RWC-NH2 (disulfide 2-8; SMILES CCCC[C@H](NC(C)=O)C(=O)N[C@H]1CSSC[C@@H](C(N)=O)NC(=O)[C@H](Cc2c[nH]c3ccccc23)NC(=O)[C@H](CCCNC(=N)N)NC(=O)[C@@H](Cc2ccccc2)NC(=O)[C@H](Cc2c[nH]cn2)NC(=O)[C@@H](CC(C)C)NC1=O) [Ac-Nle-c(Cys-D-Leu-His-D-Phe-Arg-Trp-Cys)-NH2] | 0.39 |
| FCH[dF]RW[GABA]C-NH2 (disulfide 2-8; N-terminus assumed; SMILES N=C(N)NCCC[C@@H]1NC(=O)[C@@H](Cc2ccccc2)NC(=O)[C@H](Cc2c[nH]cn2)NC(=O)[C@@H](NC(=O)[C@@H](N)Cc2ccccc2)CSSC[C@@H](C(N)=O)NC(=O)CCCNC(=O)[C@H](Cc2c[nH]c3ccccc23)NC1=O) [Phe-c(Cys-His-D-Phe-Arg-Trp-Gaba-Cys)-NH2] | 0.04 |
| Ac-LCH[dF]RW[GABA]C-NH2 (disulfide 2-8) [Ac-Leu-c(Cys-His-D-Phe-Arg-Trp-Gaba-Cys)-NH2] | 0.22 |
| [Nle]CH[dF]RW[GABA]C-NH2 (disulfide 2-8) [Nle-c(Cys-His-D-Phe-Arg-Trp-Gaba-Cys)-NH2] | 0.1 |

List the reported Ki hMC1-R/MC4-R of each binder below.
1. Ac-[Cha]CH[dF]RW[GABA]C-NH2 (disulfide 2-8) [Ac-Cha-c(Cys-His-D-Phe-Arg-Trp-Gaba-Cys)-NH2]
2. Ac-[Nle]CH[dF]RW[GABA][Pen]-NH2 (disulfide 2-8) [Ac-Nle-c(Cys-His-D-Phe-Arg-Trp-Gaba-Pen)-NH2]
3. Ac-ICH[dF]RW[GABA]C-NH2 (disulfide 2-8; SMILES CC[C@H](C)[C@H](NC(C)=O)C(=O)N[C@H]1CSSC[C@@H](C(N)=O)NC(=O)CCCNC(=O)[C@H](Cc2c[nH]c3ccccc23)NC(=O)[C@H](CCCNC(=N)N)NC(=O)[C@@H](Cc2ccccc2)NC(=O)[C@H](Cc2c[nH]cn2)NC1=O) [Ac-Ile-c(Cys-His-D-Phe-Arg-Trp-Gaba-Cys)-NH2]

Resp:
1. 0.12
2. 0.3
3. 0.14
